Reported EC50 by item:
Target: E. coli PBP1a (Escherichia coli (strain K12))
Sequence (P02918 whole entry): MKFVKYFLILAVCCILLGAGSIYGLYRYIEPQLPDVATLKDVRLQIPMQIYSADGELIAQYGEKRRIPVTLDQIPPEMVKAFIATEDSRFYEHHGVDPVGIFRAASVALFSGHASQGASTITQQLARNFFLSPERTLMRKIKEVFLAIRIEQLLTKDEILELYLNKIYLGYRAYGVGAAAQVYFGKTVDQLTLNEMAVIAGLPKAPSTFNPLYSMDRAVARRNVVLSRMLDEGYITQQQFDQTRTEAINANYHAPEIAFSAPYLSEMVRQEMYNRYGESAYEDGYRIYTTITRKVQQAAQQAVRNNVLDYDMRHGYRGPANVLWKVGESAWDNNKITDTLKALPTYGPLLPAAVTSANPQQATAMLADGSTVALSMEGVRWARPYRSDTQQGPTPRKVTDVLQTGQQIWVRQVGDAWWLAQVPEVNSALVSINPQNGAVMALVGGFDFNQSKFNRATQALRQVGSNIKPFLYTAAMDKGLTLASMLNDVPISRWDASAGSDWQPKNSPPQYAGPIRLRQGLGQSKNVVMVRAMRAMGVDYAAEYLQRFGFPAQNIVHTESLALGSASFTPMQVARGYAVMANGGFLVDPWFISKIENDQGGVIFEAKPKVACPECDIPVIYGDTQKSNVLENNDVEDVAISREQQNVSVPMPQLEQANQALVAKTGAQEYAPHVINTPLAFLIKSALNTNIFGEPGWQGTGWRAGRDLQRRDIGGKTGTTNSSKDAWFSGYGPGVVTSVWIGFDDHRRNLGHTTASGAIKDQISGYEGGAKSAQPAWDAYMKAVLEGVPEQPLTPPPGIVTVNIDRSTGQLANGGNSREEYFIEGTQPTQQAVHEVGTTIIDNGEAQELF
Experiment: Radioligand competition binding assay with 14C-labeled boronic acid probe, PBP1a
Experimental: To determine the ability of boronic acid-based test PBP inhibitors to bind Penicillin Binding Proteins (PBPs), a radio-labelled boronic acid PBP inhibitor [drawing 751] was used in competition binding assays to determine boronic acid PBP inhibitor binding to PBP1a or PBP1b from Escherichia coli. […] The flow through was recovered and 100 μl mixed with 5 ml of UltimaGold liquid scintillation cocktail and the radioactivity counted. […]
RECORDED_ENDPOINT: EC50

compound="O=C(O)c1cccc2c1OB(O)[C@@H](NC(=O)C(NC(=O)N1CCN(CCF)C(=O)C1=O)c1ccc(O)c(O)c1Cl)C2 (stereo partly shown)" experimental_value="< 10 µM"
compound="CCN1CCN(C(=O)NC(C(=O)N[C@H]2Cc3cccc(C(=O)O)c3OB2O)c2csc(N)n2)C(=O)C1=O (stereo partly shown)" experimental_value="< 10 µM"
compound="CCN1CCN(C(=O)NC(C(=O)N[C@H]2Cc3cc(C)cc(C(=O)O)c3OB2O)c2csc(N)n2)C(=O)C1=O (stereo partly shown)" experimental_value="< 10 µM"
compound="CCN1CCN(C(=O)NC(C(=O)N[C@H]2Cc3cccc(C(=O)O)c3OB2O)c2ccc(S(N)(=O)=O)cc2)C(=O)C1=O (stereo partly shown)" experimental_value="10 to 100 µM"

----------
Reported MIC by item:
test system: E. coli AG100; assay: Broth microdilution MIC, E. coli AG100 (wild-type parent); format: cell-based; conditions: Escherichia coli; wild-type parent E. coli AG100, broth microdilution; read-out: MIC E. coli AG100
RECORDED_ENDPOINT: MIC

compound=CCN1CCN(C(=O)N[C@H](C(=O)N[C@H]2Cc3cccc(C(=O)O)c3OB2O)c2ccc(S(N)(=O)=O)c(O)c2)C(=O)C1=O test_system="E. coli AG100" experimental_value="32 to 64 µg/mL"
compound="CCN1CCN(C(=O)NC(C(=O)N[C@H]2Cc3cccc(C(=O)O)c3OB2O)c2ncc(C(=O)NCCO)cc2F)C(=O)C1=O (stereo partly drawn)" test_system="E. coli AG100" experimental_value="> 128 µg/mL"
compound="C[C@H]1CN(CCN)C(=O)C(=O)N1C(=O)NC(C(=O)N[C@H]1Cc2cccc(C(=O)O)c2OB1O)c1ccc(O)c(O)c1Cl (stereo partly drawn)" test_system="E. coli AG100" experimental_value="2 to 4 µg/mL"
compound=C[C@H]1CN(CCN)C(=O)C(=O)N1C(=O)N[C@@H](C(=O)N[C@H]1Cc2ccc(F)c(C(=O)O)c2OB1O)c1ccc(O)c(O)c1Cl test_system="E. coli AG100" experimental_value="0.5 to 1 µg/mL"
compound="CCN1CCN(C(=O)NC(C(=O)N[C@H]2Cc3cccc(C(=O)O)c3OB2O)c2cnc(N)s2)C(=O)C1=O (stereo partly drawn)" test_system="E. coli AG100" experimental_value="32 to 64 µg/mL"
compound="CCN1CCN(C(=O)NC(C(=O)N[C@H]2Cc3cccc(C(=O)O)c3OB2O)c2cc(O)c(O)cc2Cl)C(=O)C1=O (stereo partly drawn)" test_system="E. coli AG100" experimental_value="8 to 16 µg/mL"

----------
tested on: E. coli ATCC 25922; experiment: Broth microdilution MIC, E. coli ATCC 25922; type: cell-based; conditions: Escherichia coli, ATCC25922, read-out: MIC E. coli 25922
RECORDED_ENDPOINT: MIC

molecule=CCN1CCN(C(=O)N[C@@H](C)C(=O)N[C@H]2Cc3cccc(C(=O)O)c3OB2O)C(=O)C1=O experimental_value="> 128 µg/mL"
molecule=CCN1CCN(C(=O)N2C[C@@H](O)C[C@@H]2C(=O)N[C@H]2Cc3cccc(C(=O)O)c3OB2O)C(=O)C1=O experimental_value="> 128 µg/mL"
molecule=CNCCN1CCN(C(=O)N[C@@H](C(=O)N[C@H]2Cc3ccc(F)c(C(=O)O)c3OB2O)c2ccc(O)c(O)c2Cl)C(=O)C1=O experimental_value="8 to 16 µg/mL"
molecule="CCN1C[C@H](CCN)N(C(=O)NC(C(=O)N[C@H]2Cc3cccc(C(=O)O)c3OB2O)c2ncc(O)cc2F)C(=O)C1=O (stereo partly shown)" experimental_value="> 128 µg/mL"
